Data provenance is PubChem BioAssay.

Can you tell me fluorescence slope for the items I'm about to list?
# target desc: Voltage-gated potassium channel subunit beta-2 (Rattus norvegicus) (UniProt P62483)
# Sequence (P62483 whole entry, looked up): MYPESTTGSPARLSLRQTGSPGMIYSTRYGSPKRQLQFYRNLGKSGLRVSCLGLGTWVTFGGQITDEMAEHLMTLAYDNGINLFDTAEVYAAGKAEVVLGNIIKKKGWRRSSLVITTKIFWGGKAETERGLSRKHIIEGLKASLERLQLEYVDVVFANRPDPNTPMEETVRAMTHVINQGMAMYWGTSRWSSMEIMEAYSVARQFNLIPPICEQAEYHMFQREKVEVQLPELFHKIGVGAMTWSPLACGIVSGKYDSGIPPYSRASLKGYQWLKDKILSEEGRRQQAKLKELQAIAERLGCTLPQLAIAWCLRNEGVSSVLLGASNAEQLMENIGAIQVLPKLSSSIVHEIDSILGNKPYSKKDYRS
# test protocol: KvBeta enzyme negative modulators, primary screen, biochemical, NADPH fluorescence (AID 622);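 also: slope of raw intensity against log time taken from 70 to 1610 s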
# condition: recombinant KvBeta, 4-cyanobenzaldehyde reduction, at 10 µM, stronger effect = higher value
Active and inactive are the calls of the source.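 The calls were made as follows: active = fluorescence slope higher than the sample average by over 3 SD (cut at about -0.22 in these data, passing the limit was not always enough); inactive = the rest.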

Endpoint output: fluorescence slope of CC1(C)Cc2c(sc3c2C2=NCCN2C=N3)CO1 . Value?
-0.328 (inactive)

Endpoint output: fluorescence slope of CCN(CC)CCCC1(CN)OCCc2ccccc21 (stereo unspecified) . Value?
-0.378 (inactive)

Endpoint output: fluorescence slope of NS(=O)(=O)c1cc2c(cc1Cl)NC=NS2(=O)=O . Value?
-0.492 (inactive)

Endpoint output: fluorescence slope of COc1ccc(N2C(=O)CN=C2Nc2nc(C)cc(C)n2)cc1 . Value?
-0.509 (inactive)

Endpoint output: fluorescence slope of Cc1c(/C(O)=C2\C(=O)C(=O)N(CCN(C)C)C2c2cccs2)cnn1-c1ccccc1 (stereo unspecified) . Value?
-0.578 (inactive)

Endpoint output: fluorescence slope of O=C1CCc2nc3ccccc3c(=O)n2N1 . Value?
-0.488 (inactive)

Endpoint output: fluorescence slope of Cc1c(N=Cc2c(O)n(C3CCCCC3)c(=O)[nH]c2=O)c(=O)n(-c2ccccc2)n1C . Value?
-0.396 (inactive)

Endpoint output: fluorescence slope of CC(=O)C1(C)OC(N)=C(C#N)C(c2ccccc2)C1(C#N)C#N (stereo unspecified) . Value?
-0.377 (inactive)

Endpoint output: fluorescence slope of CCOC(=O)c1ccc(N2C(=O)CC(Sc3nnc(C)s3)C2=O)cc1 (stereo unspecified) . Value?
-0.471 (inactive)

Endpoint output: fluorescence slope of COc1ccc(Cn2c(CCCO)nc3ccccc32)cc1OC . Value?
-0.412 (inactive)

Endpoint output: fluorescence slope of CCCCNC(=O)C(C#N)c1nc2ccccc2nc1N1CCN(c2ccccc2F)CC1 (stereo unspecified) . Value?
-0.475 (inactive)
